Reported GI50 values for a set of molecules
System: EKVX
Assay: NCI tumour cell line growth inhibition, 48 h
The source made the active and inactive calls. Cut-off read from the data, not from the text of the source: active = GI50 up to about 1.1 µM and inactive = higher.

Challenge: Look up and report measured GI50 (EKVX) for the following molecule: O=C1Nc2nc3ccccc3n2N=C2CCCC12 (stereo unspecified)
Response given: > 100 µM (inactive)

Challenge: Determine reported GI50 for O=C(/C=C/c1ccc(O)cc1)NCCc1ccc(O)cc1 [N-P-COUMAROYL TYRAMINE] ; test system: EKVX.
Response given: 3.05 µM (inactive)

Challenge: Fill in: GI50 on EKVX, entry CC(C)C(C=O)C(O)(C(F)(F)F)C(F)(F)F (stereo unspecified)
Response given: > 100 µM (inactive)

Challenge: Param request: GI50 | system EKVX | item "COc1cccc(SSc2cccc(OC)c2C(=O)O)c1C(=O)O"
Response given: > 100 µM (inactive)

Challenge: Find GI50 for COC(=O)C(=O)OC1(C(C)=O)CC2(c3ccccc3)OC1(c1ccccc1)c1ccccc12 (stereo unspecified) on EKVX and write it down.
Response given: 20.7 µM (inactive)

Challenge: Send back EKVX GI50 of "O=C(CCn1[nH]c(=O)c(Cl)c(Cl)c1=O)NO" only.
Response given: > 100 µM (inactive)
